UniProt:P09172: reported IC50 for various compounds.
Report field: quantity (unit follows the number).

Sample answers from the record:
Form field - read-out: IC50; system: UniProt:P09172; submitted item: Oc1c(F)c(F)c(Cn2cc[nH]c2=S)c(F)c1F
61.7 µM

Form field - read-out: IC50; system: UniProt:P09172; submitted item: COc1ccc(Cn2cc[nH]c2=S)cc1Br
83.2 µM

Form field - read-out: IC50; system: UniProt:P09172; submitted item: O=[N+]([O-])c1cc(Cn2cc[nH]c2=S)ccc1O
30.9 µM

Form field - read-out: IC50; system: UniProt:P09172; submitted item: Cc1ccccc1Cn1cc[nH]c1=S
339 µM

Form field - read-out: IC50; system: UniProt:P09172; submitted item: S=c1[nH]ccn1Cc1c(Cl)cc(Cl)cc1Cl
102 µM

Further cases:
Form field - read-out: IC50; system: UniProt:P09172; submitted item: FC(F)(F)c1ccc(Cn2cc[nH]c2=S)cc1
200 µM

Form field - read-out: IC50; system: UniProt:P09172; submitted item: Oc1ccccc1Cn1cc[nH]c1=S
575 µM

Form field - read-out: IC50; system: UniProt:P09172; submitted item: O=[N+]([O-])c1ccc(Cn2cc[nH]c2=S)cc1
52.5 µM

Form field - read-out: IC50; system: UniProt:P09172; submitted item: S=c1[nH]ccn1Cc1ccc(Cl)c(Cl)c1
28.2 µM

Form field - read-out: IC50; system: UniProt:P09172; submitted item: COc1ccc(Cn2cc[nH]c2=S)cc1C(F)(F)F
174 µM

Form field - read-out: IC50; system: UniProt:P09172; submitted item: Cc1cccc(C)c1Cn1cc[nH]c1=S
1000 µM

Form field - read-out: IC50; system: UniProt:P09172; submitted item: S=c1[nH]ccn1Cc1ccc(Cl)cc1Cl
17 µM

Form field - read-out: IC50; system: UniProt:P09172; submitted item: Oc1ccc(Cn2cc[nH]c2=S)cc1F
1.51 µM

----------
Dopamine beta-hydroxylase (Homo sapiens, UniProt P09172): reported pIC50 for various compounds.
Sequence (P09172 whole entry): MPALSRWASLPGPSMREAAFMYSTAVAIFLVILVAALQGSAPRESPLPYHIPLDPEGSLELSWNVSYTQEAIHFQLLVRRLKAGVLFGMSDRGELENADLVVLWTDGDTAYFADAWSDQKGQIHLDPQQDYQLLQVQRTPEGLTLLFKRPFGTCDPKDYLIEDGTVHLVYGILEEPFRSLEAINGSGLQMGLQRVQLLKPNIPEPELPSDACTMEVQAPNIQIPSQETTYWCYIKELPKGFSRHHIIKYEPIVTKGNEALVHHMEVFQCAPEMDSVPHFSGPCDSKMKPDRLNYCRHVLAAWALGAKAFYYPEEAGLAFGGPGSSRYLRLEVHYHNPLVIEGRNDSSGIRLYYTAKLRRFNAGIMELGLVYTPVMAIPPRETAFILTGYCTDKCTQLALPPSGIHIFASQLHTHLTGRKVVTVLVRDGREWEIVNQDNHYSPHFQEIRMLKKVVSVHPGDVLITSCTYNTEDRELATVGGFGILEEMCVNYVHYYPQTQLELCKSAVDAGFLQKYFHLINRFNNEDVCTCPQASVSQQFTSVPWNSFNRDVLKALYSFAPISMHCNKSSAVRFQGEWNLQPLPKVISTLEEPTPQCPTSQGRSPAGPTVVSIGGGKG
As a rule, pIC50 stands for the negative log10 of the concentration, concentration in M.

Sample answers from the record:
# query: pIC50 of entry COc1ccc(Cn2cc[nH]c2=S)cc1F
4.13

# query: pIC50 of entry Oc1c(F)cc(Cn2cc[nH]c2=S)cc1F
7.13

# query: pIC50 of entry Cc1ccc(Cn2cc[nH]c2=S)cc1
3.83

# query: pIC50 of entry COc1ccc(Cn2cc[nH]c2=S)cc1OC
3.47

# query: pIC50 of entry S=c1[nH]ccn1Cc1cc(Cl)ccc1Cl
4.01

# query: pIC50 of entry Oc1ccc(Cn2cc[nH]c2=S)cc1O
5.66

# query: pIC50 of entry S=c1[nH]ccn1Cc1ccc(Br)cc1
3.94

# query: pIC50 of entry COc1cc(Cl)c(Cn2cc[nH]c2=S)c(Cl)c1
3.81

Further cases:
# query: pIC50 of entry COc1ccc(Cn2cc[nH]c2=S)cc1[N+](=O)[O-]
3.45

# query: pIC50 of entry S=c1[nH]ccn1Cc1cc(Cl)cc(Cl)c1
5.62

# query: pIC50 of entry S=c1[nH]ccn1Cc1cccc(Cl)c1
4.92

# query: pIC50 of entry Oc1cc(Cl)c(Cn2cc[nH]c2=S)c(Cl)c1
4.12

# query: pIC50 of entry Cc1cc(Cn2cc[nH]c2=S)ccc1O
4.31

# query: pIC50 of entry Fc1cc(F)cc(Cn2cc[nH]c2=S)c1
5.92

# query: pIC50 of entry S=c1[nH]ccn1Cc1cccc(Cl)c1Cl
4.28

----------
molecular target: Dopamine beta-hydroxylase (Homo sapiens); experiment: Inhibition of dopamine beta hydroxylase
measure: pIC50
As a rule, pIC50 stands for the negative log10 of the concentration, concentration in M.

# query: pIC50 of entry S=c1[nH]ccn1Cc1c(Cl)cccc1Cl
3.15

# query: pIC50 of entry Fc1cccc(Cn2cc[nH]c2=S)c1
5.25

# query: pIC50 of entry S=c1[nH]ccn1Cc1ccccc1
4.48

Further cases:
# query: pIC50 of entry Oc1cccc(Cn2cc[nH]c2=S)c1
3.83

# query: pIC50 of entry Oc1c(Cl)cc(Cn2cc[nH]c2=S)cc1Cl
6.17

# query: pIC50 of entry Oc1ccc(Cn2cc[nH]c2=S)cc1Br
4.92

# query: pIC50 of entry Fc1ccc(Cn2cc[nH]c2=S)cc1
4.33

# query: pIC50 of entry COc1c(Cl)cc(Cn2cc[nH]c2=S)cc1Cl
4.33

# query: pIC50 of entry COc1ccccc1Cn1cc[nH]c1=S
4.13

# query: pIC50 of entry COc1ccc(Cn2cc[nH]c2=S)cc1
3.69

# query: pIC50 of entry Oc1ccc(Cn2cc[nH]c2=S)cc1
5.59
